Entries and their measured Kd follow.
Target: T1, human IL-1β (human, UniProt P01584 117-269)
T1 construct: also called human Interleukin-1 beta
Assay: ProteOn bioanalyzer (BioRad)
Answer by giving the amount and then stating its unit.

// below: answered binders
- P1H8 (antibody, V domains shown, also called matured Ig P1H8) VH: QVQLQQWGAGLLKPSETLSLTCAVYGGSFSDYYWSWIRQPPGKGLEWIGEIDHSGSTNYNPSLKSRVTISVDTSRNQFSLSLSSVTAADTAVYYCARASPSSGWTLDYWGQGTLVTVSS VL: QSVLTQPPSVSVSPGQTASITCSGDKLGDKFAFWYQQKPGQSPVLVIYLDNKRPSGIPERFSGSNSGNTATLTISGTQALDEADYYCQAWADSFEVFGGGTKLTVLG: 10.1 pM
- P2D7 (antibody, V domains shown, claim 45 pairs 17 with 14); also called matured Ig P2D7) VH: QVQLQQWGAGLLKPSETLSLTCAVYGGSFSDYYWSWIRQPPGKGLEWIGEIDHSGSTNYNPSLKSRVTISVDTSRNQFSLSLSSVTAADTAVYYCARASPSSGWTLDYWGQGTLVTVSS VL: QSVLTQPPSVSVSPGQTASITCSGDKLGDKFAFWYQQKPGQSPVLVIYLDNKRPSGIPERFSGSNSGNTATLTISGTQALDEADYYCYAWADTYEVFGGGTK: 3.1 pM
- IgG1 2H (antibody, V domains shown, also called IgG 2H; IgG clone 2H) VH: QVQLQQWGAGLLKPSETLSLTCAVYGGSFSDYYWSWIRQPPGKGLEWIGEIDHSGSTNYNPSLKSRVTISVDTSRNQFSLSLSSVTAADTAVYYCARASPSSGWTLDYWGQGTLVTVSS VL: QSVLTQPPSVSVSPGQTASITCSGDKLGDKFAFWYQQKPGQSPVLVIYLDNKRPSGIPERFSGSNSGNTATLTISGTQALDEADYYCQAWDSNIEVFGGGTKLTVLG: 78.3 pM
- P2D8 (antibody, V domains shown, also called matured Ig P2D8) VH: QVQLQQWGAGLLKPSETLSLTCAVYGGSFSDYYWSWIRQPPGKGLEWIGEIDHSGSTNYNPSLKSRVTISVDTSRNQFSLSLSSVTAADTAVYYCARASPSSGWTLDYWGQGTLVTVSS VL: QSVLTQPPSVSVSPGQTASITCSGDKLGDKFAFWYQQKPGQSPVLVIYLDNKRPSGIPERFSGSNSGNTATLTISGTQALDEADYYCEAWADTYEVFGGGTKLTVLG: 4.57 pM

Now look at this entry.
# Kd (binder: P1D9 (antibody, V domains shown, also called matured Ig P1D9) VH: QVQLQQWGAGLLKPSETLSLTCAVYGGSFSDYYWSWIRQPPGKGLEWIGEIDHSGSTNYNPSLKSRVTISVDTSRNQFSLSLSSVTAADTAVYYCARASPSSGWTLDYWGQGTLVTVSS VL: QSVLTQPPSVSVSPGQTASITCSGDKLGDKFAFWYQQKPGQSPVLVIYLDNKRPSGIPERFSGSNSGNTATLTISGTQALDEADYYCYAWDNAYEVFGGGTKLTVLG ) is 6.73 pM
